Tested on: pERK, HCT116 cells
PROTOCOL DESCRIPTION: Phospho-ERK inhibition, AlphaLISA p-ERK 1/2, HCT-116
Format: cell-based, human
CONDITION SUMMARY: Table 3; lowest % inhibition value of the pERK IC50 curve; above −20% = no paradoxical induction
METRIC NAME: HCT116 pERK (Ymin %)

1) Cc1c(F)cccc1S(=O)(=O)Nc1ccc(F)c(Nc2ncnc3sc(-n4cnc5c(N)cccc54)nc23)c1F
−1
2) CN(Cc1ccncc1)C(=O)c1cn(-c2nc3c(Nc4c(F)ccc(NS(=O)(=O)c5cccc(Cl)c5Cl)c4F)ncnc3s2)c2ccccc12
−4
3) CN(C1CCOC1)S(=O)(=O)c1cn(-c2nc3c(Nc4c(F)ccc(NS(=O)(=O)c5cccc(Cl)c5Cl)c4F)ncnc3s2)c2ccccc12 (stereo not drawn)
−13
4) COCCOc1cccc2c1ncn2-c1nc2c(Nc3c(F)ccc(NS(=O)(=O)c4cccc(Cl)c4Cl)c3F)ncnc2s1
−1
5) CC1(O)CCCN(c2cccc3c2ncn3-c2nc3c(Nc4c(F)ccc(NS(=O)(=O)c5cccc(Cl)c5Cl)c4F)ncnc3s2)CC1 (stereo not drawn)
−5
6) CS(=O)(=O)N1CCN(c2cccc3c2ncn3-c2nc3c(Nc4c(F)ccc(NS(=O)(=O)c5cccc(Cl)c5Cl)c4F)ncnc3s2)CC1
−12

---

Tested on: pERK, HCT116 cells
PROTOCOL DESCRIPTION: Phospho-ERK inhibition, AlphaLISA p-ERK 1/2, HCT-116
Format: cell-based, human
CONDITION SUMMARY: Table 3; lowest % inhibition value of the pERK IC50 curve; above −20% = no paradoxical induction
compounds and their reported HCT116 pERK (Ymin %)
METRIC NAME: HCT116 pERK (Ymin %)

1. CC(=O)c1cn(-c2nc3c(Nc4c(F)ccc(NS(=O)(=O)c5cccc(Cl)c5Cl)c4F)ncnc3s2)c2ccccc12 [Example 88]
−8
2. N#CCc1cn(-c2nc3c(Nc4c(F)ccc(NS(=O)(=O)c5cccc(Cl)c5Cl)c4F)ncnc3s2)cn1 [Example 124]
12
3. O=S(=O)(Nc1ccc(F)c(Nc2ncnc3sc(-n4cc(S(=O)(=O)N5CC(C(F)F)C5)c5ccccc54)nc23)c1F)c1cccc(Cl)c1Cl [Example 76]
−10
4. O=S(=O)(Nc1ccc(F)c(Nc2ncnc3sc(-n4cnc5c(N6CCC(O)CC6)cccc54)nc23)c1F)c1cccc(Cl)c1Cl [Example 144]
−4
5. COc1ccc(S(=O)(=O)Nc2ccc(F)c(Nc3ncnc4sc(-n5cnc6c(N)cccc65)nc34)c2F)c(C)c1Cl [Example 13]
−14
6. Cc1c(F)cccc1S(=O)(=O)Nc1ccc(F)c(Nc2ncnc3sc(-n4cnc5ccccc54)nc23)c1F [Example 7]
−5
7. O=S(=O)(Nc1ccc(F)c(Nc2ncnc3sc(-n4cnc5c(N6CCC(F)(CO)CC6)cccc54)nc23)c1F)c1cccc(Cl)c1Cl [Example 142]
0

---

System: pERK, HCT116 cells
PROTOCOL DESCRIPTION: Phospho-ERK inhibition, AlphaLISA p-ERK 1/2, HCT-116
Type: cell-based, human
CONDITION SUMMARY: Table 3; lowest % inhibition value of the pERK IC50 curve; above −20% = no paradoxical induction
METRIC NAME: HCT116 pERK (Ymin %)

1. COC1CCN(c2cccc3c2ncn3-c2nc3c(Nc4c(F)ccc(NS(=O)(=O)c5cccc(Cl)c5Cl)c4F)ncnc3s2)CC1
−13
2. Cc1ncn(-c2nc3c(Nc4c(F)ccc(NS(=O)(=O)c5cccc(F)c5C)c4F)ncnc3s2)c1C
−11
3. Cc1c(F)cccc1S(=O)(=O)Nc1ccc(F)c(Nc2ncnc3sc(-n4nc(C(=O)N5CCC(CO)C5)c5ccccc54)nc23)c1F (stereo not drawn)
−13
4. O=C(c1cn(-c2nc3c(Nc4c(F)ccc(NS(=O)(=O)c5cccc(Cl)c5Cl)c4F)ncnc3s2)c2cccc(F)c12)N1C2CCC1COC2
3
5. Cc1c(Cl)cccc1S(=O)(=O)Nc1ccc(F)c(Nc2ncnc3sc(-n4cnc5c(-c6cccnc6)cccc54)nc23)c1F
−2
6. O=C(c1cn(-c2nc3c(Nc4c(F)ccc(NS(=O)(=O)c5cccc(Cl)c5Cl)c4F)ncnc3s2)c2ccccc12)N1CC(O)(C(F)(F)F)C1
−1
7. CCC1(O)CN(C(=O)c2cn(-c3nc4c(Nc5c(F)ccc(NS(=O)(=O)c6cccc(Cl)c6Cl)c5F)ncnc4s3)c3ccccc23)C1
−6
8. Nc1ncccc1-c1cccc2c1ncn2-c1nc2c(Nc3c(F)ccc(NS(=O)(=O)c4cccc(Cl)c4Cl)c3F)ncnc2s1
−5
9. O=S(=O)(Nc1ccc(F)c(Nc2ncnc3sc(-n4cnc5c(C6(CO)CC6)cccc54)nc23)c1F)c1cccc(Cl)c1Cl
−8
10. Cc1cc2ncn(-c3nc4c(Nc5c(F)ccc(NS(=O)(=O)c6cccc(Cl)c6Cl)c5F)ncnc4s3)c2cc1C
−12
11. O=S1(=O)CCN(c2cccc3c2ncn3-c2nc3c(Nc4c(F)ccc(NS(=O)(=O)c5cccc(Cl)c5Cl)c4F)ncnc3s2)CC1
4
12. N#CC1(c2cccc3c2ncn3-c2nc3c(Nc4c(F)ccc(NS(=O)(=O)c5cccc(Cl)c5Cl)c4F)ncnc3s2)CC1
2
13. CC1(O)CCN(C(=O)c2cn(-c3nc4c(Nc5c(F)ccc(NS(=O)(=O)c6cccc(Cl)c6Cl)c5F)ncnc4s3)c3ccccc23)CC1
8
14. Cc1c(F)cccc1S(=O)(=O)Nc1ccc(F)c(Nc2ncnc3sc(-n4cnc5c(C(C)(C)C#N)cccc54)nc23)c1F
7
15. COc1ccc(S(=O)(=O)Nc2ccc(F)c(Nc3ncnc4sc(-n5cnc6c(C(C)(C)C#N)cccc65)nc34)c2F)c(C)c1Cl
−15
16. Cc1c(F)cccc1S(=O)(=O)Nc1ccc(F)c(Nc2ncnc3sc(-n4nc(C(=O)N5C6CCC5CN(C)C6)c5ccccc54)nc23)c1F
2
17. O=C(c1cn(-c2nc3c(Nc4c(F)ccc(NS(=O)(=O)c5cccc(Cl)c5Cl)c4F)ncnc3s2)c2ccccc12)N1CC2(CCOCC2)C1
−12
18. COC1(C)CCN(c2cccc3c2ncn3-c2nc3c(Nc4c(F)ccc(NS(=O)(=O)c5cccc(Cl)c5Cl)c4F)ncnc3s2)CC1
−5
19. N#CC1CCN(c2cccc3c2ncn3-c2nc3c(Nc4c(F)ccc(NS(=O)(=O)c5cccc(Cl)c5Cl)c4F)ncnc3s2)CC1
−10
20. O=S(=O)(Nc1ccc(F)c(Nc2ncnc3sc(-n4cnc5c(N6CCC(O)(C(F)(F)F)CC6)cccc54)nc23)c1F)c1cccc(Cl)c1Cl
−14
21. CC(C)(O)[C@@H]1CCCN1C(=O)c1cn(-c2nc3c(Nc4c(F)ccc(NS(=O)(=O)c5cccc(Cl)c5Cl)c4F)ncnc3s2)c2ccccc12
−5
